Recorded residual activity, one value per entry.
Molecular target: Serine/threonine-protein kinase TBK1 (Homo sapiens) (UniProt Q9UHD2)
Sequence (whole entry): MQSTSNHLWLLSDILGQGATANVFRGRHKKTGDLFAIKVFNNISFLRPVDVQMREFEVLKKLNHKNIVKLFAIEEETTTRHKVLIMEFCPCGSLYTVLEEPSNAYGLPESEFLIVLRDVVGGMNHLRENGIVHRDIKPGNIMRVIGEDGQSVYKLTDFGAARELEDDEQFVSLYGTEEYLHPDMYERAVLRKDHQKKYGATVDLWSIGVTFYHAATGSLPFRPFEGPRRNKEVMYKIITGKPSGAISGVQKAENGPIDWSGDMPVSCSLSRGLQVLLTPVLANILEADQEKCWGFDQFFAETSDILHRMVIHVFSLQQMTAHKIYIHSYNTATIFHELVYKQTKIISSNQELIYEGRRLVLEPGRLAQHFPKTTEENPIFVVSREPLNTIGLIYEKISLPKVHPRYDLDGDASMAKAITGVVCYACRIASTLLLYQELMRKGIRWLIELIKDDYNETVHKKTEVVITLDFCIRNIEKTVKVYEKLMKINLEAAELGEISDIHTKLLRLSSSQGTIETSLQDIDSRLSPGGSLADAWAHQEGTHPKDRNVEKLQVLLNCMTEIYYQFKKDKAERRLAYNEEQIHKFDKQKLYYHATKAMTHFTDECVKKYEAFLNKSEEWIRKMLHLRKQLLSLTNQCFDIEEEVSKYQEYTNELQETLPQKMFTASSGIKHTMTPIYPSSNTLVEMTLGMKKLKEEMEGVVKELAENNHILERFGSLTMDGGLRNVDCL
Conditions: at 10 µM
Property Measured: residual activity (%)

1. Cc1cc(C)c(/C=C2\C(=O)Nc3ccccc32)[nH]1 ... 52
2. O=S(=O)(NCCNC/C=C/c1ccc(Br)cc1)c1cccc2cnccc12 ... 66
3. NC(=O)c1cccc(-c2cc(Nc3ccc(OC(F)(F)F)cc3)ncn2)c1 ... 79
4. CCN1/C(=C/C(C)=O)Sc2ccc(OC)cc21 ... 51
5. O=c1cc(N2CCOCC2)oc2c(-c3ccccc3)cccc12 ... 55
6. CC(C)(C)c1nc2c3ccc(F)cc3c3c(=O)[nH]ccc3c2[nH]1 ... 3
7. c1ccc(-c2cnc(Nc3ccc(OCCN4CCCC4)cc3)s2)cc1 ... 23
8. CCCCc1c(-c2ccc(OC)cc2)[nH]c2nccnc12 ... 59
9. COc1cc2nccc(Oc3ccc(NC(=O)Nc4cc(C)on4)c(Cl)c3)c2cc1OC ... 68
10. O=C1Cc2c([nH]c3ccc(Br)cc23)-c2ccccc2N1 ... 31
11. O=c1cc(N2CCOCC2)oc2c1ccc1ccccc12 ... 71
12. NCCNc1ncc(C(N)=O)c(Nc2cccc(C(F)(F)F)c2)n1 ... 54

----------
target: Macrophage-stimulating protein receptor (Homo sapiens) (UniProt Q04912); details: at 1 µM
Sequence (Q04912 25-304 limits assumed): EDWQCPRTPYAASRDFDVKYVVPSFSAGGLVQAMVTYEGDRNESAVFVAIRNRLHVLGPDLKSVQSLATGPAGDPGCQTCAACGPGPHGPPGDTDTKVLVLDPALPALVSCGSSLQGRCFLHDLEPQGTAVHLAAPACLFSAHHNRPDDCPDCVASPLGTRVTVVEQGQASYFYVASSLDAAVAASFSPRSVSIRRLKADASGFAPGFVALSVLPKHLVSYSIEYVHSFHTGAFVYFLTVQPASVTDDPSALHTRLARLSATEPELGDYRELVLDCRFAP
Sequence (Q04912 310-1400 limits assumed): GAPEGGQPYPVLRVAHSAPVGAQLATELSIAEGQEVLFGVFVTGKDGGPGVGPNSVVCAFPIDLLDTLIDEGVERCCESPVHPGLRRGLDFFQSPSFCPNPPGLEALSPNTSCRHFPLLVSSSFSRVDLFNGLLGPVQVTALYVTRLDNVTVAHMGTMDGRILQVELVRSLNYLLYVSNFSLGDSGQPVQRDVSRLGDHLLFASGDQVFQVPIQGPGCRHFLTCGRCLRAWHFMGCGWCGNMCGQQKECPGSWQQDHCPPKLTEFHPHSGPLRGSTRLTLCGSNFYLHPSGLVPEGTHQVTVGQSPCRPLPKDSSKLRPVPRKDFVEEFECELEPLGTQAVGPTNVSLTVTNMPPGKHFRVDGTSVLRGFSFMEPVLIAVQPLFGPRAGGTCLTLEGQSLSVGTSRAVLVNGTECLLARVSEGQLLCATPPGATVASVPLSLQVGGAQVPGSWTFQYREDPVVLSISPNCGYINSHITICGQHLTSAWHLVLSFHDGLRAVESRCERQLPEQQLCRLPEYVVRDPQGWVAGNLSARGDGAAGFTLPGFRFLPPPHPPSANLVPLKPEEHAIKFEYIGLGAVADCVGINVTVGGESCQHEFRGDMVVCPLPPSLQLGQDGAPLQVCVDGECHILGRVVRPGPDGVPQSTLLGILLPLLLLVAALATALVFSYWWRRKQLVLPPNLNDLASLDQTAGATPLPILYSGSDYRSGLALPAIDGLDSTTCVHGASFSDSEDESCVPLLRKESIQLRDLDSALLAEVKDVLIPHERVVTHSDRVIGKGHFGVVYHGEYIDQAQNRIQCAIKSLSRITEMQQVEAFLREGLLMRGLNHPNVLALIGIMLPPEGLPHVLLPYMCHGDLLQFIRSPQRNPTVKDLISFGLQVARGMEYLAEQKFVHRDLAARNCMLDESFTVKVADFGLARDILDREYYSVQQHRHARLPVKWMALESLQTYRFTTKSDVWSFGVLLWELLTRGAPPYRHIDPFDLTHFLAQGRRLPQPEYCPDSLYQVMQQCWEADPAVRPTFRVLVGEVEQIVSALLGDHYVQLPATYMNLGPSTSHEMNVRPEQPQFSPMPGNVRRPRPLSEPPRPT
Property Measured: residual activity (%)

1. O=c1cc(N2CCNCC2)oc2c(-c3ccccc3)cccc12 ... 76
2. Nc1nc(Nc2ccc(S(N)(=O)=O)cc2)nn1C(=O)c1c(F)cccc1F ... 81
3. O=C1Cc2c([nH]c3ccc([N+](=O)[O-])cc23)-c2ccccc2N1 ... 100
4. O=c1cc(N2CCOCC2)oc2c(-c3ccccc3)cccc12 ... 64
5. NC(=O)c1ccc(-c2nc(-c3ccc4c(c3)OCCO4)c(-c3ccccn3)[nH]2)cc1 ... 94
